# activity change, negative = cytotoxicity values compiled below
# Test system: SKOV3
# protocolSummary: Primary qHTS to identify gynecologic anti-cancer compounds using libraries of approved drugs and bioactive compounds (AID 1345084); also: % is scaled to controls: 0 for no effect and ±100 for the full control effect; nearly all actives have a fitted effect of over 55% in size
# testContext: Gynecologic cancer cell panel viability, ATPlite luminescence, 48 h; series mostly up to 57.5 µM
# Text: National Center for Advancing Translational Sciences [NCATS] Assay Overview: Chemotherapeutic drug responses vary from cancer to cancer and from patient to patient. […] ATPlite is a luminescence based assay reliant on the conversion of a luciferase substrate to light in the presence of ATP. As a cytotoxic compound will suppress growth and decrease the number of cells, the concentration of ATP will decrease, and less light signal will be detected in the well. […]
Records with an inconclusive call do not appear. Active and inactive are the calls of the source. Calls follow the shape of the dose curve; as a rule, active = well fitted cell-killing curve with a large enough effect; inconclusive = small, poorly fitted or top-dose-only effect, or effect the other way; inactive = flat fitted curve, though single readings scatter.

The cases that follow already have their activity change, negative = cytotoxicity on record.
{"compound": "C/C=C(\\C)C(=O)OCC1OC(OC2OC(COC(=O)/C(C)=C/C)C(OC3OC(CO)C(OC(=O)/C(C)=C/C)C(OC(=O)/C(C)=C/C)C3O)C(O)C2O)C(O)C(O)C1OC1OC(CO)C(OC(=O)/C(C)=C/C)C(OC(=O)/C(C)=C/C)C1O (centres undefined)", "tgt": "SKOV3", "activity change, negative = cytotoxicity": "-11.6% [at 11.6 µM] (inactive)"}
{"compound": "C[C@@H]1O[C@@H](O[C@H]2[C@H](O)[C@@H](C(=O)O)O[C@@H](O[C@H]3CC[C@@]4(C)C(CC[C@]5(C)C4CC=C4C6CC(C)(C)CC[C@]6(C(=O)O)CC[C@]45C)C3(C)C)[C@@H]2O[C@@H]2OC[C@@H](O)[C@H](O)[C@H]2O)[C@H](O)[C@H](O)[C@H]1O (some centres undefined)", "tgt": "SKOV3", "activity change, negative = cytotoxicity": "-0.245% [at 11.6 µM] (inactive)"}
{"compound": "CC1(C)CC[C@]2(C(=O)OC3OC(CO)C(O)C(O)C3O)CC[C@]3(C)C(=CCC4[C@@]5(C)CC[C@H](OC6OC(C(=O)O)C(O)C(OC7OC(CO)C(O)C(O)C7O)C6O)C(C)(C)C5CC[C@]43C)C2C1 (some centres undefined)", "tgt": "SKOV3", "activity change, negative = cytotoxicity": "-1.26% [at 11.6 µM] (inactive)"}

Now for the compound whose activity change, negative = cytotoxicity we want.
Asked: Which measured activity change, negative = cytotoxicity value corresponds to C[C@@H]1O[C@@H](O[C@H]2[C@@H](OC(=O)[C@]34CCC(C)(C)CC3C3=CCC5[C@@]6(C)C[C@H](O)[C@H](O[C@@H]7O[C@H](C(=O)O)[C@@H](O)[C@H](O)[C@H]7O)[C@@](C)(C(=O)O)C6CC[C@@]5(C)[C@]3(C)CC4)OC[C@H](O)[C@@H]2O)[C@H](O)[C@H](O)[C@H]1O[C@@H]1OC[C@@H](O)[C@H](O)[C@H]1O (some centres undefined) ?
Given back: 13.5% [at 11.6 µM] (inactive)
